Experiment: Ocular tissue concentration of ONL1204 after intravitreal injection in rabbit eye (LC-MS/MS)
Settings: retina, 0.1 mg/eye, Conc. of ONL1204 Retina, single IVT 0.1 mg/eye, Day 1, LLOQ 3.00 ng/g
Residues, ends and D or L forms follow the SMILES beside them.
property-label: tissue level at time at 24 h (ng/g)
One number for each entry, in ng/g.

Output measured tissue level at time at 24 h for this item: CC[C@H](C)[C@H](NC(=O)[C@H](Cc1ccc(O)cc1)NC(=O)[C@H](CC(N)=O)NC(=O)[C@@H](NC(=O)[C@H](C)NC(=O)CNC(=O)[C@H](CC(C)C)NC(=O)[C@H](Cc1ccc(O)cc1)NC(=O)[C@@H](NC(=O)[C@H](Cc1cnc[nH]1)NC(=O)[C@@H](N)Cc1cnc[nH]1)[C@@H](C)CC)C(C)C)C(=O)N[C@@H](Cc1ccc(O)cc1)C(N)=O [ONL1204] (H-HHIYLGAVNYIY-NH2)
12.7

----------
Experiment: Ocular tissue concentration of ONL1204 after intravitreal injection in rabbit eye (LC-MS/MS)
Details: vitreous humor, other: intravitreal injection, 0.1 mg/eye
Residues, ends and D or L forms follow the SMILES beside them.
property-label: half-life (days)
Numbers only, in days.

Supply reported half-life belonging to this molecule: CC[C@H](C)[C@H](NC(=O)[C@H](Cc1ccc(O)cc1)NC(=O)[C@H](CC(N)=O)NC(=O)[C@@H](NC(=O)[C@H](C)NC(=O)CNC(=O)[C@H](CC(C)C)NC(=O)[C@H](Cc1ccc(O)cc1)NC(=O)[C@@H](NC(=O)[C@H](Cc1cnc[nH]1)NC(=O)[C@@H](N)Cc1cnc[nH]1)[C@@H](C)CC)C(C)C)C(=O)N[C@@H](Cc1ccc(O)cc1)C(N)=O [ONL1204] (H-HHIYLGAVNYIY-NH2)
279

----------
Assay: Ocular tissue concentration of ONL1204 after intravitreal injection in rabbit eye (LC-MS/MS)
Conditions: retina, 0.1 mg/eye, Conc. of ONL1204 Retina, single IVT 0.1 mg/eye, Day 7, LLOQ 3.00 ng/g
Residues, ends and D or L forms follow the SMILES beside them.
property-label: tissue level at time at 168 h (ng/g)
One number for each entry, in ng/g.

Item CC[C@H](C)[C@H](NC(=O)[C@H](Cc1ccc(O)cc1)NC(=O)[C@H](CC(N)=O)NC(=O)[C@@H](NC(=O)[C@H](C)NC(=O)CNC(=O)[C@H](CC(C)C)NC(=O)[C@H](Cc1ccc(O)cc1)NC(=O)[C@@H](NC(=O)[C@H](Cc1cnc[nH]1)NC(=O)[C@@H](N)Cc1cnc[nH]1)[C@@H](C)CC)C(C)C)C(=O)N[C@@H](Cc1ccc(O)cc1)C(N)=O [ONL1204] (H-HHIYLGAVNYIY-NH2) : provide tissue level at time at 168 h
85.2

----------
Test: Ocular tissue concentration of ONL1204 after intravitreal injection in rabbit eye (LC-MS/MS)
Conditions: retina, 0.1 mg/eye
Residues, ends and D or L forms follow the SMILES beside them.
property-label: tissue level at time at 4032 h (ng/g)
Answers are plain numbers, in ng/g.

Please indicate tissue level at time at 4032 h recorded for CC[C@H](C)[C@H](NC(=O)[C@H](Cc1ccc(O)cc1)NC(=O)[C@H](CC(N)=O)NC(=O)[C@@H](NC(=O)[C@H](C)NC(=O)CNC(=O)[C@H](CC(C)C)NC(=O)[C@H](Cc1ccc(O)cc1)NC(=O)[C@@H](NC(=O)[C@H](Cc1cnc[nH]1)NC(=O)[C@@H](N)Cc1cnc[nH]1)[C@@H](C)CC)C(C)C)C(=O)N[C@@H](Cc1ccc(O)cc1)C(N)=O [ONL1204] (H-HHIYLGAVNYIY-NH2)
8.4
